The origin of these recorded values is patent US20020031761A1.

- SUBJECT_OF_TEST: T1, purified, recombinant parvovirus B19 capsid proteins VP1 and VP2 (VP1-VP2) (human parvovirus B19, UniProt P07299 1-781; P07299 1-554)
- T1 construct: Surrogate target: partially purified/purified recombinant VP1 + VP2 preparation; Made by methods of US 5,498,413 or WO 91/12269
- PROTOCOL: phage ELISA; VP1-VP2 coated on dextrin plates, HRP anti-M13 detection
Positions of bridges follow the written chain, without caps; N, C: chain ends. No end group written: not given here.
Reported ELISA signal values follow for various binders
Could you respond with only the numeric value?

Below: 2 binders and their reported ELISA signal.
LFCHFWYNCDF (peptide, not shown: large carriers, disulfide 3-9 (inferred); also: displayed on M13 phage, coat protein fusion and flanking residues not given here, Tested as phage isolate displaying the peptide (TN7 library)) [TN7 isolate B12]; 0.7
FFCQYWYNCD (peptide, not shown: large carriers, disulfide 3-9 (inferred); also: displayed on M13 phage, coat protein fusion and flanking residues not given here, Tested as phage isolate displaying the peptide (TN7 library); Last template position printed as '-' (10 residues)) [TN7 isolate C11]; 0.7

Now consider a different binder.
(Q) Please give the measured ELISA signal for this binder: FCWLWPSSDCF (peptide, not shown: large carriers, disulfide 2-10 (inferred); also: displayed on M13 phage, coat protein fusion and flanking residues not given here, Tested as phage isolate displaying the peptide (TN9 library)) [TN9 isolate D01]
(A) 0.7
